Entries and their shrunken log2 fold change
Tested on: Escherichia coli TOP10;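 also: peptides expressed intracellularly from a pBAD plasmid library in pooled LB shake-flask culture, induced with 0.3% L-arabinose, DNA abundance read by NGS, three biological replicates, DESeq2 with apeglm shrinkage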
assay: shrunken log2 fold change of peptide-encoding DNA abundance (4.5 h post-induction vs induction); higher = less antimicrobial activity (less host growth inhibition)
testConditions: time post-induction: 4.5 h; library: site-saturation at positions 5, 18, 19, 20
propertyName: shrunken log2 fold change

>>> reported("RRIRIRPPRLPRPRPRPGWRPRP")
0.468
>>> reported("RRIRARPPRLPRPRPRPNWPPRP")
0.0205
>>> reported("RRIRHRPPRLPRPRPRPDHGPRP")
-0.115
>>> reported("RRIRCRPPRLPRPRPRPLCRPRP")
0.0269
>>> reported("RRIRTRPPRLPRPRPRPCWTPRP")
-0.442
>>> reported("RRIRPRPPRLPRPRPRPFLGPRP")
-0.0178
>>> reported("RRIRPRPPRLPRPRPRPAKVPRP")
0.045
>>> reported("RRIRLRPPRLPRPRPRPNVSPRP")
-0.0595
>>> reported("RRIRRRPPRLPRPRPRPYHEPRP")
0.016
>>> reported("RRIRMRPPRLPRPRPRPDKQPRP")
0.0746
>>> reported("RRIRYRPPRLPRPRPRPWQTPRP")
-0.0202
>>> reported("RRIRARPPRLPRPRPRPPEVPRP")
1.17
>>> reported("RRIRSRPPRLPRPRPRPAKCPRP")
0.0862
>>> reported("RRIRLRPPRLPRPRPRPAEFPRP")
-0.011
>>> reported("RRIRARPPRLPRPRPRPHSCPRP")
0.0724
>>> reported("RRIRKRPPRLPRPRPRPNPKPRP")
0.143
>>> reported("RRIRIRPPRLPRPRPRPECVPRP")
0.0147
>>> reported("RRIRWRPPRLPRPRPRPQWGPRP")
0.293

Measured values drawn from the supplement of paper PMC9112550 for this set.
